Reference for the values: patent US20030148956A1

Target: T1, CRF2R
T1 sequence (Q13324 whole entry, species assumed, looked up): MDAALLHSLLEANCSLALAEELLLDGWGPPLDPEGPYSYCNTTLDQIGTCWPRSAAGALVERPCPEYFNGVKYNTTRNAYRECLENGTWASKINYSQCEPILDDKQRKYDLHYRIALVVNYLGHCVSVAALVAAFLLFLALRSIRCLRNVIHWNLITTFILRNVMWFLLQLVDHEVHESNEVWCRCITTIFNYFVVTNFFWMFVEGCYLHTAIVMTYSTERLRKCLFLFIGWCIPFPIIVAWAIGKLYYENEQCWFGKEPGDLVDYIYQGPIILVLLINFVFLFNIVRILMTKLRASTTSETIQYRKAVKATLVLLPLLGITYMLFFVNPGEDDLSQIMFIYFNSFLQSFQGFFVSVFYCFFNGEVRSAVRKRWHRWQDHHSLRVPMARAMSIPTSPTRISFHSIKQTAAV
Experiment: cell-based or functional assay
Ends that are not written are not given here.
Kindly return fulfilled if reported CRF2R Emax is no lower than 70%; return not fulfilled if it is lower.

Binder	Assigned Label
SQEPPISLDLTFGLLREVLEMTKADQLAQQAHSNRKLLDIA-NH2 [SEQ ID NO 88]	not fulfilled
ZGPPISIDLPTRLLRKMIEIEKQEKEKQQAANNRLLLDTI (C-terminal amide) [SEQ ID NO 60]	not fulfilled
ZGPPISIDLPFQLLRKMIEIEKQEKEKQQAANNRLLLDTI (C-terminal amide) [SEQ ID NO 84]	fulfilled
ZGPPISIDLPFVLLRKMIEIEKQEKEKQQAANNRLLLDTI (C-terminal amide) [SEQ ID NO 190]	not fulfilled
IVLSLDVPIGLLQILLEQARAEAAREQATTNARILARV-NH2 [SEQ ID NO 122]	fulfilled
